Parameter IC50: see the listing below.
test system: CEM cells HIV-1 protection, formazan growth assay; assay: NCI AIDS Antiviral Assay; conditions: measured here: growth of uninfected CEM cells

COMPOUND	COMPARISON_OPERATOR	IC50 (µM)
CCC1=NC(N/N=C/c2ccco2)=N/C1=C\c1ccco1	=	110
CCC(COC(/C=C1/C=CC(=O)O1)COC(=O)c1ccccc1)c1ccccc1 (stereo not drawn)	=	77.6
Cc1ccccc1C(C#N)C(=O)C(=O)Nc1nc([N+](=O)[O-])cs1 (stereo not drawn)	>	7.94
COc1cc([C@H]2Oc3cc([C@H]4Oc5cc(O)cc(O)c5C(=O)[C@@H]4O)ccc3O[C@@H]2CO)ccc1O	=	66.1
CC1C2c3ccccc3C(c3ccccc32)C1CN1C(CCO)COC1c1ccccc1 (stereo not drawn)	=	38
CSC(=O)/C=C1\SS/C(=C\C(=O)SC)S1	=	3.09
Cc1c(Cl)cccc1NC(=O)C(=O)C(C(=O)c1ccccc1-c1ccccc1)C1OC(=O)c2ccccc21 (stereo not drawn)	=	26.3
Cc1c(NC(=O)C(C)(C)Br)c(=O)oc2c(C)c3occc(=O)c3cc12	>	16.6
Cc1ccc(Sc2ccccc2N)cc1	=	51.3
CC1(C)CC2(C)ON=C(c3ccccc3)N2c2ccccc2N1 (stereo not drawn)	=	105
CCOC(=O)Cn1c(=O)[nH]c(=O)c2c1ncn2Cc1ccccc1	=	513
COC(=O)[C@@H]1C[C@@H]2c3ccccc3N(S(=O)(=O)c3ccccc3)[C@@H]2N1C(=O)OC	>	200
O=C(Cc1ccccc1)NN1C(=O)C(Cl)C1c1cccc(O)c1 (stereo not drawn)	=	15.5
N#C/C(=C\c1cccc(C#N)c1)C(=O)c1ccccc1	=	15.8
CN1C2CC(=O)CC1[C@H](O)[C@@H]2O	>	200
CCOC(=O)C1=C(O)C(=O)c2ccsc2C1=O	=	120
N#Cc1c(N2CCOCC2)[nH]c(=O)n(-c2ccccc2)c1=S	>	200
O=C1c2ccccc2NC(=O)C2C1C(c1ccccc1)CC2(O)c1ccccc1 (stereo not drawn)	=	33.1
O=C(Cc1csc(-c2nc(CC(=O)NNc3ccccc3)cs2)n1)NNc1ccccc1	>	145
CCOC(=O)Cc1nc2sc3c(c2c(=O)[nH]1)CCCC3	>	324
N=c1c2c(ncn1N)CCN(Cc1ccccc1)C2	=	30.9
CCCCn1c2ccccc2c2ccc3c(c21)C(=O)C=CC3=O	>	17.4
CSc1c2c(C)n[nH]c2nn1-c1ccccc1	=	12.3

* * *

tested on: CEM cells HIV-1 protection, formazan growth assay; assay: NCI AIDS Antiviral Assay; conditions: measured here: growth of uninfected CEM cells
Parameter IC50: see the listing below.

COMPOUND	IC50
CN(C)c1ncnc2c1ncn2C1OC(CO)C2NP(=O)(N(CCCl)CCCl)OC21 (configuration not stated)	> 200 µM
CN(CC#N)C1CCC[C@]1(O)/C=C/[Si](C)(C)C (some centres not stated)	> 102 µM
Cn1c(=S)[nH]n(CCOc2ccccc2)c1=S	> 200 µM
CC1=CC(Nc2ccc(S(=O)(=O)c3ccc(NC4=NCCNC(C)=C4)cc3)cc2)=NCCN1	> 200 µM
O=C(O)Cn1ccc(=O)c2ccc([N+](=O)[O-])cc21	> 200 µM
COc1ccc(/C=C2/C(=O)N=C(NC(C)=O)N2C)cc1OC	> 200 µM
Nc1nc(Cl)cc(NCCC2(CO)CCC2)n1	> 200 µM
COc1c2occc2c([N+](=O)[O-])c2ccc(=O)oc12	26.3 µM
CC1(C)C=[N+]([O-])C(C)(C)N1	> 200 µM
Cn1cc2c(c1-c1ccccc1)[n+](=O)c1ccccc1n2[O-]	32.4 µM
CSc1c(C#N)c(=O)[nH]c2n[nH]c(C)c12	> 200 µM
c1cc2cc(Cc3ccc4[nH]ccc4c3)ccc2[nH]1	30.9 µM
